Consider the following molecules; for each one, report its melting point.
Answers are plain numbers, in °C.

// each molecule listed below needs its melting point
1. COc1cc(C)nc(NC(N)=S)n1
2. COC(OC)C1CN=C(c2cc3cccc(NS(=O)(=O)c4ccccn4)c3[nH]2)S1 (stereo unspecified)
3. CS(=O)(=O)c1cc(C(F)(F)F)ccc1C(=O)O
4. CCn1cc(-c2cccc(C(F)(F)F)c2)c(=O)n1-c1ccc(F)cc1
5. CSc1ccc(N2CCOCC2)c(NC(=N)C(C)C)c1

Reply:
1: 220; 2: 153; 3: 156; 4: 92; 5: 155

Ask: Please supply the value of reported melting point for the item O=C1C2=C(CCCC2)C(=O)N1c1ccc(Br)cc1F
Reply: 102

----------
READOUT: melting point

Worked examples, 5 molecules total:
MOLECULE: CCC(=N)NC(=O)OC
RESULT: 87 to 93 °C
--
MOLECULE: CCN1c2ncccc2C(=O)N(C)c2ccc(-c3c[nH]c(C(C)=O)c3)nc21
RESULT: 219 to 220 °C
--
MOLECULE: CC(=O)Nc1cccc(OCc2cc([N+](=O)[O-])ccc2C(=O)O)c1
RESULT: 225 °C
--
MOLECULE: Nc1cc(C(=O)O)cc(SCc2ccccn2)c1-c1ccccc1
RESULT: 210 to 211 °C
--
MOLECULE: CO[C@@H]1CN(CCCn2nc(Cl)ccc2=O)CC[C@@H]1NC(=O)c1cc(Cl)c(N)c2c1OCCC2 (relative stereo)
RESULT: 150 °C

// each molecule listed below needs its melting point
1. CC(OC(C)(C)C(=O)O)c1cc(-c2ccc(Cl)cc2)no1 (single isomer, unassigned; (+))
2. CC(C)c1cc2cc(OCC(=O)O)c(Cl)c(Cl)c2s1
3. OC(CCCCCCCCCCOCc1ccccc1)c1ccc(OCc2ccccc2)c(OCc2ccccc2)c1 (stereo not given)
4. O=c1cc(C=Cc2ccc(O)cc2)oc(-c2ccccc2)c1
5. N#CCN1CCc2oc3ccccc3c2C1

Reply:
["120 to 124 °C", "168 to 170 °C", "50 to 52 °C", "198 to 201 °C", "78 °C"]

----------
Consider the following compounds; for each one, report its melting point.

Worked examples, 3 compounds total:
COMPOUND: CC(=O)n1ccc2c1CCn1ccnc1C2=C1CCN(C)CC1
RESULT: 198 °C

COMPOUND: CS(=O)(=O)OCCNc1ccc(Cl)cc1[N+](=O)[O-]
RESULT: 108 to 109 °C

COMPOUND: Cc1ccc(C(=O)c2ccc(CC#N)n2C)cc1
RESULT: 102 to 105 °C

// each compound listed below needs its melting point
1. Fc1ccc(CN(C(=S)Nc2ccccc2)C2CCCC2)cc1
2. CC(C)CCC(=O)N[C@H]1CC[C@H](CCN2CCC(c3cccc4c3CCO4)CC2)CC1
3. O=C(O)c1cc2ccc(Cl)cc2[nH]c1=O
4. O=C1NC(=O)c2ccc(N3CCCCC3)cc2/C1=C/Nc1ccc(CN2CCCCC2)cc1

Reply:
135 °C
188 °C
317 to 318 °C
211 to 212 °C

// each compound listed below needs its melting point
1. O=C(C=Cc1ccc(-c2ccc(O)c(Cl)c2)cc1)NO
2. CC(=O)c1ccc(OCCCBr)c(C)c1
3. CC1=CC(c2ccccc2Cl)C(C(=O)OC(C)C)=C(N)N1 (stereo unspecified)
4. CCCCCN(CCC12CC3CC(CC(C3)C1)C2)C(=O)NCc1cccnc1
5. Cc1ccc(S(=O)(=O)N2CC3=CC(=O)CC3C2)cc1 (stereo unspecified)
6. COC(=O)c1ccc2nc3c(C)sc(C)c3c(=O)n2c1

Reply:
172 to 175 °C
59 to 61 °C
161 °C
88.5 to 102 °C
147 to 149 °C
209 to 210 °C

// each compound listed below needs its melting point
1. CC(C)(C)OC(=O)N1CCC(OCc2ccccc2)C1CC(=O)Cn1cnc2ccncc2c1=O (stereo unspecified)
2. OCc1cccc2nc(-c3ccncc3)oc12
3. Cn1cnc(COc2nn3c(-c4ccccc4F)nnc3cc2C23CCC(C2)C3)n1
4. Nc1nc2ccc(Cl)cc2nc1N
5. CC(=O)n1nc(-c2cc(C(C)(C)C)c(O)c(C(C)(C)C)c2)c2cccnc21

Reply:
1: 221 °C; 2: 146 to 147 °C; 3: 170 to 172 °C; 4: 290 °C; 5: 169 to 171 °C

----------
Consider the following compounds; for each one, report its melting point.

Worked examples, 4 compounds total:
COMPOUND: COC(=O)C1=C(C)NC(CC(=O)N2CCN(C3CC4CCC(C3)N4C(=O)OC(C)Cl)CC2)=C(C(=O)OC)C1c1c(Cl)cccc1Cl (stereo not given)
RESULT: 135 to 145 °C
//
COMPOUND: CCCCOC(=O)COc1ccc(C(=O)N(C)c2ccccc2Sc2ccccc2-c2nnn[nH]2)cc1
RESULT: 148 to 150 °C
//
COMPOUND: CN1CCC(O)(c2cccn2Cc2ccccc2F)CC1
RESULT: 164 to 165 °C
//
COMPOUND: COC(=O)CS(=O)(=O)C(C)c1ccc(-c2ccccc2)cc1 (stereo not given)
RESULT: 79 to 80 °C

// each compound listed below needs its melting point
1. CCOC(=O)C(C)(C)NC(=O)c1cccc(C2=NC(C)(C)Cc3cc(OCC)c4c(c32)CC(C)(C)O4)c1
2. Cn1c2c(c3ccccc31)C(=O)NCC2
3. S=C=Nc1ccc2nccnc2c1Br
4. O=C1C[C@@H](O)C[C@H](CCc2c(Cl)cc(Cl)cc2OCc2ccc(F)cc2)O1
5. C=CC(=O)OCCCCCCCCOc1ccc(-c2ccc(OCCCCCCCCOC(=O)C=C)c(F)c2F)c(F)c1F

Reply:
155 to 156 °C
240 to 244 °C
157 to 158 °C
133 to 135 °C
60.5 to 61.4 °C

// each compound listed below needs its melting point
1. COC(=O)c1c(C(=O)O)c(O)c2cc(OC)c(OC)c(OC)c2c1-c1cc(OC)c(OC)c(OC)c1
2. CC(=O)N(O)Cc1ccccc1Nc1c(Cl)cccc1Cl
3. CN(C)C(=O)C(C)(C)n1cc(Cl)c(-c2ccccc2)n1
4. Cc1ccc(C2=NC(C)(C(C)C)C(=O)N2)cc1 (stereo not given)
5. Cc1cc(NC(=O)c2c(C(F)(F)F)nc3c(C(F)(F)F)cccc3c2O)no1
6. CC(=O)c1ccc(Nc2cccc(-c3ccccn3)c2)c(N)c1

Reply:
1: 167 to 171 °C; 2: 165 to 171 °C; 3: 117 to 119 °C; 4: 151 to 154 °C; 5: 216 °C; 6: 145 to 146 °C

----------
Consider the following compounds; for each one, report its melting point.

COMPOUND: COc1ccc2c(=O)sc(C(=O)O)cc2c1
melting point: 278 to 279 °C
--
COMPOUND: CCOC(=O)c1cccc(-c2ccc(F)c3cc(CBr)sc23)c1
melting point: 139 to 140 °C
--
COMPOUND: CCSc1nc(C#N)c(C#N)nc1C
melting point: 91.5 to 92.5 °C
--
COMPOUND: O=C1C=C(NC(=O)C(=O)c2cn(Cc3ccc([N+](=O)[O-])cc3)c3ccccc23)CO1
melting point: 275 to 277 °C
--
COMPOUND: CN(C)c1nc2cc(N)ccn2n1
melting point: 236 to 238 °C
--
COMPOUND: NS(=O)(=O)Cc1cccc(NC(=O)c2cnn3c(C(F)F)cc(-c4ccc(C(F)(F)F)cc4)nc23)c1
melting point: 280 °C
--
COMPOUND: CSc1ccc(C(=O)c2c(C)cc3n2CCC3C(=O)O)n1C (stereo unspecified)
melting point: 182 to 184 °C
--
COMPOUND: CCN1C(=O)C2C3CCC(CC3)C2(c2ccc(Cl)c(Cl)c2)C1=O (stereo unspecified)
melting point: 131 to 134 °C

// each compound listed below needs its melting point
1. CCCCc1nc(I)c(C=O)n1Cc1ccc(C(=O)OC)c2ccccc12
2. c1coc(-c2nc(COc3ccc(CCCn4ccnc4)cc3)co2)c1

Reply:
178 to 179 °C
92 to 93 °C

Ask: Please supply the value of reported melting point for the item O=C(Cc1ccccc1)NCO
Reply: 78 °C

----------
READOUT: melting point

COMPOUND: CC(=O)NN=C1CC2(CCN(C)CC2)OC1C (stereo not given)
melting point: 164 to 167 °C
//
COMPOUND: Cc1c(-c2cccnc2)n(CCCCCC(=O)O)c2ccc(Cl)cc12
melting point: 137 to 141 °C
//
COMPOUND: O=C1C(=Cc2ccco2)CCc2cc(OCCn3ccnc3)ccc21
melting point: 109 to 110 °C
//
COMPOUND: CC(=O)N[C@@H](CSC(=O)C(C)C)C(=O)OC(C)C
melting point: 59 to 59.5 °C
//
COMPOUND: COc1cc(CCl)ccc1OCc1nc(-c2cccc(OS(C)(=O)=O)c2)oc1C
melting point: 112 to 114 °C
//
COMPOUND: CN1CCC(Oc2ccccc2C(N)=O)C1 (stereo not given)
melting point: 116 to 118 °C
//
COMPOUND: CCOC(=O)C1Cc2c([nH]c3ccc(C)cc23)C(c2ccccc2)N1 (stereo not given)
melting point: 128 to 130 °C
//
COMPOUND: CCOC(=O)c1cc(=O)nc2n1-c1ccccc1OC2
melting point: 174 to 175 °C
//
COMPOUND: CNc1nc(Cc2ccc(OC)c(OC)c2)nc2sc(C#N)c(C)c12
melting point: 161 to 163 °C

Consider now this further compound.
Ask: Please supply the value of reported melting point for the item CCOC(=O)C(C(=O)OCC)C(=O)C(C)Oc1ccc(Oc2ccc(C#N)cc2)cc1 (stereo not given)
Reply: 42 to 46 °C

Measured values drawn from a melting point compilation (Tetko et al.; mined from patent text by program, amines drawn as free bases though some values may be those of a salt) for this set.
